# tgt: T1, N-terminally fluorescein isothiocyanate (FITC)-labelled PR25 (human, fluorescein isothiocyanate (FITC) on the N-terminus)
# T1 construct: C9orf72 repeat-derived dipeptide repeat; also called FITC-labeled PR25; FITC-PR25; source: synthetic peptide (Peptide Specialty Laboratories GmbH, HPLC-purified)
# T1 peptide: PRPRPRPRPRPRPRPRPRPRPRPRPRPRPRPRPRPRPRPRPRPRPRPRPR
# assayExplanation: fluorescence polarisation; 100 nM FITC-labelled PR25/GR25 with increasing concentrations of p53 1-94 or p53 TAD2; room temperature; 20 mM Hepes pH 7.0, 50 mM NaCl, 2 mM TCEP, 0.04% NaN3; fit assuming a 1:1 complex
# condition: both partners purified
measurementType: Kd (µM)

SQAMDDLMLSPDDIEQWFTED (domain or fragment, UniProt P04637 37-57, looked up, human p53, amino acids 37 to 57 (TAD2 construct); 15N-labelled for NMR, unlabelled for fluorescence polarisation; source: E. coli BL21-DE3 Star, purified (lysis in 6 M urea, Ni-NTA, TEV cleavage, second Ni-NTA, SEC on Superdex Peptide)) [p53^TAD2 (human p53 transactivation domain 2, amino acids 37 to 57)] | 3.64
